# Tested system: MNK2 (Homo sapiens)
# Construct: the open reading frames of human Mnk1 and Mnk2a were amplified from cDNA
# Method notes: Mnk2a in vitro kinase assay (indirect fluorescence polarization)
# Run conditions: pre-activated GST-Mnk2a 2.5 nM, 20 μM ATP, 30 μM substrate peptide
Observed property: IC50 (nM)

Here are 3 compounds together with their reported answers.
INSERT INTO measurements (compound, unit_spec, measurement) VALUES
  ('CO[C@H]1CCC[C@@H](Oc2ncccc2Nc2ncnc3sc(C(=O)NCC4COCCN4)c(C)c23)C1 (relative stereo)', 'nM', 33),
  ('COC1CCCC(Oc2cc(F)ccc2Nc2ncnc3sc(C(=O)NCC#N)c(C)c23)C1 (centres unmarked)', 'nM', 21),
  ('CC(=O)N[C@H]1C[C@H](Oc2cc(F)ccc2Nc2ncnc3sc(C(=O)NCCO)c(C)c23)C1', 'nM', 152);

A. Cc1c(C(=O)NCC2CNCCO2)sc2ncnc(Nc3ccc(F)cc3OC3CCCC(O)C3)c12 (mixture of isomers)
B. CO[C@@H]1CCC[C@@H](Oc2ncccc2Nc2ncnc3sc(C(=O)N[C@H]4CC[C@H](O)CC4)c(C)c23)C1 (racemic)
C. CC(=O)N[C@H]1CC[C@H](Oc2cc(F)ccc2Nc2ncnc3sc(C(N)=O)c(C)c23)CC1
D. CO[C@@H]1CCCC[C@H]1Oc1cc(F)ccc1Nc1ncnc2sc(C(=O)NCCCN3CCCC3)c(C)c12
E. CO[C@@H]1CCC[C@@H](Oc2ncccc2Nc2ncnc3sc(C(=O)NCC#CCN(C)C)c(C)c23)C1 (racemic)
*Q* Ordering criterion: IC50; begin with the maximum. Arrange the labels as the request states and list them.
*A* B, E, A, D, C
(B: 125 nM, E: 48 nM, A: 18 nM, D: 11 nM, C: 3 nM)

1. CC(=O)N[C@H]1CC[C@H](Oc2cc(F)ccc2Nc2ncnc3sc(C(=O)NCCCN4CCCC4)c(C)c23)C1
2. COC1CCCC(Oc2cc(F)ccc2Nc2ncnc3sc(C(=O)NC4CCN(C)CC4)c(C)c23)C1 (centres unmarked) [Example 86]
3. CO[C@H]1CC[C@H](Oc2cc(F)ccc2Nc2ncnc3sc(C(=O)NCCCN4C(=O)CCC4=O)c(C)c23)CC1
4. COC1CCCC(Oc2cc(F)ccc2Nc2ncnc3sc(C(=O)NCC4COCCN4)c(C)c23)C1 (centres unmarked) [Example 99]
*Q* Task field, ranking: reported IC50, descending order. List the labels according to the requested ordering.
*A* 2, 4, 1, 3
(2: 93 nM, 4: 36 nM, 1: 15 nM, 3: 9 nM)

I. Cc1c(C(N)=O)sc2ncnc(Nc3ccc(F)cc3O[C@H]3C[C@@H]4OCO[C@@H]4C3)c12
II. Cc1c(C(=O)NCC#CCN)sc2ncnc(Nc3ccc(F)cc3O[C@@H]3CCC[C@@H](O)C3)c12 (racemic)
*Q* Given the listed records, identify the one among I and II with higher IC50. Answer format: the label of the selected item.
*A* II

====

# Tested system: MNK2 (Homo sapiens)
# Construct: the open reading frames of human Mnk1 and Mnk2a were amplified from cDNA
# Method notes: Mnk2a in vitro kinase assay (indirect fluorescence polarization)
# Run conditions: pre-activated GST-Mnk2a 2.5 nM, 20 μM ATP, 30 μM substrate peptide
Observed property: IC50 (nM)

Solved cases below.
INSERT INTO measurements (compound, unit_spec, measurement) VALUES
  ('COC1CCCC(Oc2cc(F)ccc2Nc2ncnc3sc(C(=O)NCC4COCCN4)c(C)c23)C1 (stereo not shown) [Example 84]', 'nM', 91),
  ('COC1CCCC(Oc2cc(F)ccc2Nc2ncnc3sc(C(=O)NC4CCN(C)CC4)c(C)c23)C1 (stereo not shown) [Example 102]', 'nM', 34);

1. COC1CCCC(Oc2cc(F)ccc2Nc2ncnc3sc(C(=O)NC4CC4N)c(C)c23)C1 (stereo not shown) [Example 90]
2. Cc1c(C(=O)NCCCN2CCCC2)sc2ncnc(Nc3ccc(F)cc3OC3CCCCC3O)c12 (stereo not shown) [Example 263]
*Q* Choose between 1 and 2 : whose measured IC50 value is numerically larger? The response must carry the label of the picked entry.
*A* 2

====

# Tested system: MNK2 (Homo sapiens)
# Construct: the open reading frames of human Mnk1 and Mnk2a were amplified from cDNA
# Method notes: Mnk2a in vitro kinase assay (indirect fluorescence polarization)
# Run conditions: pre-activated GST-Mnk2a 2.5 nM, 20 μM ATP, 30 μM substrate peptide
pIC50: −log10 of the molar value.
Observed property: pIC50

Example entries and their recorded answers appear below.
INSERT INTO results (molecule_smiles, tested_system, observed_property, measurement) VALUES
  ('CC(=O)N[C@H]1C[C@H](Oc2cc(F)ccc2Nc2ncnc3sc(C(=O)NCCCN4CCCC4)c(C)c23)C1', 'MNK2 (Homo sapiens)', 'pIC50', 7.21),
  ('Cc1c(C(=O)NCCCN(C)C)sc2ncnc(Nc3ccc(F)cc3O[C@@H]3CCCC[C@H]3O)c12', 'MNK2 (Homo sapiens)', 'pIC50', 7.27);

a. CC(=O)N[C@H]1C[C@H](Oc2cc(F)ccc2Nc2ncnc3sc(C(=O)N[C@H]4C[C@@H]4N)c(C)c23)C1
b. CO[C@H]1CC[C@H](Oc2cc(F)ccc2Nc2ncnc3sc(C(=O)NCCN4CCCCC4)c(C)c23)CC1
*Q* Could you please tell me which of these two has the higher pIC50: a or b ? Indicate which entry you chose by stating its label.
*A* b

====

# Tested system: MNK2 (Homo sapiens, UniProt Q9HBH9)
# Construct: the open reading frames of human Mnk1 and Mnk2a were amplified from cDNA
# Sequence (Q9HBH9 whole entry): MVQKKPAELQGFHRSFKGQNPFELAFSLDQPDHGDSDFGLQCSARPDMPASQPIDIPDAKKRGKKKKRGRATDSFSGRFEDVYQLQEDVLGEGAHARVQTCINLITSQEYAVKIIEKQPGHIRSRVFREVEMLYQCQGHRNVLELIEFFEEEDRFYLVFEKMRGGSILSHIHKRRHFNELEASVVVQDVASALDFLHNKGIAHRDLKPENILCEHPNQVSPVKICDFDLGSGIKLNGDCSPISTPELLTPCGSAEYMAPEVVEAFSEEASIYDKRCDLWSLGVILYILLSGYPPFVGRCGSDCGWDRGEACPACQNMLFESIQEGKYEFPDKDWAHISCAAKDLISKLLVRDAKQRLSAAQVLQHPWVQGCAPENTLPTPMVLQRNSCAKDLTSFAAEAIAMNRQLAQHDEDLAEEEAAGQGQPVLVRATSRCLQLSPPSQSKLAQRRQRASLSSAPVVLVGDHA
# Method notes: Mnk2a in vitro kinase assay (indirect fluorescence polarization)
# Run conditions: pre-activated GST-Mnk2a 2.5 nM, 20 μM ATP, 30 μM substrate peptide
Observed property: IC50 (nM)

INSERT INTO assay_data (compound, measurement) VALUES
  ('CO[C@@H]1CCC[C@@H](Oc2ncccc2Nc2ncnc3sc(C(=O)NCCCN4CCOCC4)c(C)c23)C1 (racemic)', 84);

a. CC(=O)N[C@H]1CCC[C@@H]1Oc1cc(F)ccc1Nc1ncnc2sc(C(N)=O)c(C)c12
b. Cc1c(C(N)=O)sc2ncnc(Nc3ccc(F)cc3O[C@@H]3CCCC[C@H]3N(C)S(C)(=O)=O)c12 (racemic)
c. CO[C@H]1CC[C@H](Oc2cc(F)ccc2Nc2ncnc3sc(C(=O)NCCCN4CCOCC4)c(C)c23)CC1
*Q* Put the items in order so that reported IC50 rises from first to last. Put the labels in the requested order and write them down.
*A* c, a, b

====

# Tested system: MNK2 (Homo sapiens)
# Construct: the open reading frames of human Mnk1 and Mnk2a were amplified from cDNA; made in house; host or cells: E. coli BL21
# Method notes: Mnk2a in vitro kinase assay (indirect fluorescence polarization)
# Assay type: biochemical
# Run conditions: pre-activated GST-Mnk2a 2.5 nM, 20 μM ATP, 30 μM substrate peptide
# Method: Inhibitory potency of compounds against Mnk1, Mnk2a and other kinases was assessed with assays based on a format known to those skilled in the art as the indirect (competitive) fluorescence polarization. The assay detection system comprises a small fluorophore-labeled phospho-peptide (termed ligand) bound to a phospho-specific antibody. The product generated by the kinase reaction competes with the ligand for antibody binding. […]
Observed property: IC50 (nM)

Consider the worked cases shown below.
INSERT INTO assay_data (compound, observed_property, measurement) VALUES
  ('Cc1c(C(=O)N[C@H]2CC[C@H](O)CC2)sc2ncnc(Nc3ccc(F)cc3O[C@H]3CC[C@H](O)CC3)c12', 'IC50', 20),
  ('Cc1c(C(N)=O)sc2ncnc(Nc3ccc(F)cc3O[C@H]3CCC[C@@H]3NC(=O)C3CC3)c12', 'IC50', 377),
  ('COC1CCCC(Oc2cc(F)ccc2Nc2ncnc3sc(C(=O)NCC#CCN)c(C)c23)C1 (stereo not shown)', 'IC50', 31);

I. Cc1c(C(=O)NCc2cn(C)cn2)sc2ncnc(Nc3ccc(F)cc3O[C@@H]3CCC[C@@H](O)C3)c12 (racemic)
II. Cc1c(C(N)=O)sc2ncnc(Nc3ccc(F)cc3O[C@H]3C[C@@H]4OC(C)(C)O[C@@H]4C3)c12
III. CO[C@H]1CCC[C@@H](Oc2ncccc2Nc2ncnc3sc(C(=O)NCCCO)c(C)c23)C1 (relative stereo)
*Q* Please list these compounds in decreasing order of IC50. Use the labels to give the requested order.
*A* II, III, I
(II: 74 nM, III: 23 nM, I: 13 nM)

====

# Tested system: MNK2 (Homo sapiens, UniProt Q9HBH9)
# Construct: the open reading frames of human Mnk1 and Mnk2a were amplified from cDNA
# Method notes: Mnk2a in vitro kinase assay (indirect fluorescence polarization)
# Run conditions: pre-activated GST-Mnk2a 2.5 nM, 20 μM ATP, 30 μM substrate peptide
Observed property: IC50 (nM)

INSERT INTO results (compound, unit_spec, measurement) VALUES
  ('CNC(=O)c1sc2ncnc(Nc3cccnc3O[C@H]3CC[C@H](OC)CC3)c2c1C', 'nM', 14);

I. COC(=O)c1sc2ncnc(Nc3ccc(F)cc3OC3CCC(C)(C)CC3)c2c1C
II. Cc1c(C(=O)NCC#CCN(C)C)sc2ncnc(Nc3cccnc3O[C@H]3CC[C@H](O)CC3)c12
III. Cc1c(C(=O)NC(C)C)sc2ncnc(Nc3cccnc3O[C@H]3CC[C@H](N)CC3)c12
IV. CO[C@@H]1CCC[C@@H](Oc2ncccc2Nc2ncnc3sc(C(=O)NC4CCN(C)CC4)c(C)c23)C1 (racemic)
*Q* Ordering criterion: IC50; begin with the maximum. The labels, placed in the requested order, form the answer.
*A* IV, I, II, III
(IV: 89 nM, I: 37 nM, II: 10 nM, III: 5 nM)

A. CC(=O)N(C)[C@H]1CC[C@H](Oc2cc(F)ccc2Nc2ncnc3sc(C(=O)NCCCN(C)C)c(C)c23)CC1
B. Cc1c(C(=O)NC2CCN(C)CC2)sc2ncnc(Nc3ccc(F)cc3OC3CCCCC3O)c12 (single isomer, unassigned) [Example 259]
*Q* Name the one with the greater IC50 value, either A or B as given. API: response body contains the label of the selected item.
*A* B
